# key: entry, value: log10(microsomal CLint at 10 µM)
assay: Intrinsic clearance in rat intestinal S9 fraction at 10 uM up to 60 min in presence of NADPH by LC-MS/MS analysis
READOUT LABEL: log10(microsomal CLint at 10 µM) (log10 of the value in µL/min/mg)

COMPOUND	MEASUREMENT
CCOC(=O)OC[C@H]1O[C@@H](Oc2nn(C(C)C)c(C)c2Cc2ccc(OC(C)C)cc2)[C@H](O)[C@@H](O)[C@@H]1O [REMOGLIFLOZIN ETABONATE]	0.53
CSc1ccc(Cc2c(O[C@@H]3O[C@H](CO)[C@@H](O)[C@H](O)[C@H]3O)n[nH]c2C(C)C)cc1	0.66
CCc1[nH]nc(O[C@@H]2O[C@H](CO)[C@@H](O)[C@H](O)[C@H]2O)c1Cc1ccc(SC)cc1	0.68
CSc1ccc(Cc2c(O[C@@H]3O[C@H](CO)[C@@H](O)[C@H](O)[C@H]3O)n[nH]c2C)cc1	0.51
Cc1c(Cc2ccc(OC(C)C)cc2)c(O[C@@H]2O[C@H](CO)[C@@H](O)[C@H](O)[C@H]2O)nn1C(C)C	0.59
Cc1[nH]nc(O[C@@H]2O[C@H](CO)[C@@H](O)[C@H](O)[C@H]2O)c1Cc1ccc(OC(C)C)cc1	0.61
CSc1ccc(Cc2c(O[C@@H]3O[C@H](CO)[C@@H](O)[C@H](O)[C@H]3O)n[nH]c2C(F)(F)F)cc1	1.86

---

Target: Sodium/glucose cotransporter 2 (Homo sapiens, UniProt P31639)
Sequence (P31639 whole entry): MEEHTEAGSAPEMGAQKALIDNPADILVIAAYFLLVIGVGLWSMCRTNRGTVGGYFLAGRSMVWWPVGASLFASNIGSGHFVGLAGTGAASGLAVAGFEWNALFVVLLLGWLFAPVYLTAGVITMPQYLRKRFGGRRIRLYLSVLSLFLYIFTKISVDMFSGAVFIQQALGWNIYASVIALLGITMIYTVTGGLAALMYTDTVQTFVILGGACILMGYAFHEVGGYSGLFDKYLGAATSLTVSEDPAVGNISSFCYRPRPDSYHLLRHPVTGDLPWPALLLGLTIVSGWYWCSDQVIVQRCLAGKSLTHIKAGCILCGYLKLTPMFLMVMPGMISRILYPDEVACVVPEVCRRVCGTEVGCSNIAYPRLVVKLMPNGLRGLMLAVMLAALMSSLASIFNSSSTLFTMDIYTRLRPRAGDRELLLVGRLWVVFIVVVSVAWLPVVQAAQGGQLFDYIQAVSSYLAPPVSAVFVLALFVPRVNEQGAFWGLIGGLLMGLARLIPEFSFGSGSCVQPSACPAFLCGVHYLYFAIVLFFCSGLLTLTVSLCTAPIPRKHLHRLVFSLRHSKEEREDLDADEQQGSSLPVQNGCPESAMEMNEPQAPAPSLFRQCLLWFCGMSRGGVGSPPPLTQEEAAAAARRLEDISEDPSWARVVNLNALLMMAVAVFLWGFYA
Experiment: Inhibition of human SGLT2 expressed in COS7 cells assessed as reduction in [14C]-AMG uptake
Format: cell-based
Under this convention, True denotes IC50 strictly below 50 nM and False denotes IC50 at or above 50 nM.

1) OC[C@H]1O[C@@H](Oc2n[nH]c3cccc(CCc4ccccc4)c23)[C@H](O)[C@@H](O)[C@@H]1O False
2) CSc1ccc(Cc2c(O[C@@H]3O[C@H](CO)[C@@H](O)[C@H](O)[C@H]3O)n[nH]c2C(F)(F)F)cc1 True
3) CCc1ccc(Cc2c(O[C@@H]3O[C@H](CO)[C@@H](O)[C@H](O)[C@H]3O)n[nH]c2C)cc1 True
4) Cc1[nH]nc(O[C@@H]2O[C@H](CO)[C@@H](O)[C@H](O)[C@H]2O)c1Cc1ccc(C(C)C)cc1 True
5) Cc1ccc(Cc2c(O[C@@H]3O[C@H](CO)[C@@H](O)[C@H](O)[C@H]3O)n[nH]c2C)cc1 True
6) CSc1ccc(Cc2c(O[C@@H]3O[C@H](CO)[C@@H](O)[C@H](O)[C@H]3O)n[nH]c2C(C)C)cc1 False
7) Cc1ccccc1Cc1c(O[C@@H]2O[C@H](CO)[C@@H](O)[C@H](O)[C@H]2O)n[nH]c1C False

---

test: Apparent permeability of compound in human Caco-2 cells by LC-MS/MS analysis; assay type: ADME, cell-based
Entries and their measured Papp follow.
READOUT LABEL: Papp (×10⁻⁶ cm/s)

COMPOUND	READOUT LABEL	UNIT NAME	MEASUREMENT
Cc1c(Cc2ccc(OC(C)C)cc2)c(O[C@@H]2O[C@H](CO)[C@@H](O)[C@H](O)[C@H]2O)nn1C(C)C	Papp	×10⁻⁶ cm/s	3.16
Cc1[nH]nc(O[C@@H]2O[C@H](CO)[C@@H](O)[C@H](O)[C@H]2O)c1Cc1ccc(OC(C)C)cc1	Papp	×10⁻⁶ cm/s	1.02
CCOC(=O)OC[C@H]1O[C@@H](Oc2nn(C(C)C)c(C)c2Cc2ccc(OC(C)C)cc2)[C@H](O)[C@@H](O)[C@@H]1O [REMOGLIFLOZIN ETABONATE]	Papp	×10⁻⁶ cm/s	4.29

---

assay: Oral bioavailability in rat assessed as ratio of AUC at 3 mg/kg up to 360 mins by LC-MS/MS analysis; type: ADME, organism-based; settings: in vivo
Listing of entries alongside the reported bioavailability.
READOUT LABEL: bioavailability (%)

COMPOUND	UNIT NAME	MEASUREMENT
Cc1[nH]nc(O[C@@H]2O[C@H](CO)[C@@H](O)[C@H](O)[C@H]2O)c1Cc1ccc(OC(C)C)cc1	%	0.43
CCOC(=O)OC[C@H]1O[C@@H](Oc2nn(C(C)C)c(C)c2Cc2ccc(OC(C)C)cc2)[C@H](O)[C@@H](O)[C@@H]1O [REMOGLIFLOZIN ETABONATE]	%	5.79
Cc1c(Cc2ccc(OC(C)C)cc2)c(O[C@@H]2O[C@H](CO)[C@@H](O)[C@H](O)[C@H]2O)nn1C(C)C [REMOGLIFLOZIN]	%	3.23

---

test: AUC(0 to t) in rat at 3 mg/kg, po up to 360 mins by LC-MS/MS analysis; assay type: ADME, organism-based; set-up: route oral, dose 3 mg/kg, time <=360; settings: in vivo
READOUT LABEL: AUC(0-t) at 6 h (ng·h/mL)

MOLECULE	MEASUREMENT
Cc1[nH]nc(O[C@@H]2O[C@H](CO)[C@@H](O)[C@H](O)[C@H]2O)c1Cc1ccc(OC(C)C)cc1	6.42
Cc1c(Cc2ccc(OC(C)C)cc2)c(O[C@@H]2O[C@H](CO)[C@@H](O)[C@H](O)[C@H]2O)nn1C(C)C [REMOGLIFLOZIN]	27.9

---

test: Intrinsic clearance in human liver microsomes at 30 uM up to 60 mins by LC-MS/MS analysis; format: ADME, Microsome; settings: read-out: CLH

COMPOUND	UNIT NAME	microsomal CLint at 30 µM
Cc1[nH]nc(O[C@@H]2O[C@H](CO)[C@@H](O)[C@H](O)[C@H]2O)c1Cc1ccc(OC(C)C)cc1	µL/min/mg	1.44
CCCn1nc(O[C@@H]2O[C@H](CO)[C@@H](O)[C@H](O)[C@H]2O)c(Cc2ccc(OC(C)C)cc2)c1C	µL/min/mg	6.75
CCn1nc(O[C@@H]2O[C@H](CO)[C@@H](O)[C@H](O)[C@H]2O)c(Cc2ccc(OC(C)C)cc2)c1C	µL/min/mg	4.15
Cc1c(Cc2ccc(OC(C)C)cc2)c(O[C@@H]2O[C@H](CO)[C@@H](O)[C@H](O)[C@H]2O)nn1C	µL/min/mg	3.73
Cc1c(Cc2ccc(OC(C)C)cc2)c(O[C@@H]2O[C@H](CO)[C@@H](O)[C@H](O)[C@H]2O)nn1C(C)C [REMOGLIFLOZIN]	µL/min/mg	0.85

Cited source for all entries: ChEMBL document CHEMBL4715919
